# Experimental System: hRNase-2 (Homo sapiens, UniProt P10153)
# Sequence (P10153 28-161): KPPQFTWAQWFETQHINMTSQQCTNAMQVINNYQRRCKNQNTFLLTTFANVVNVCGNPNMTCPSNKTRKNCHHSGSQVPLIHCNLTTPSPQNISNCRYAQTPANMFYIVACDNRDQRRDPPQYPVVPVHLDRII
# Test Method Notes: Inhibition of human ribonuclease hRNase-2, method of Example IX
# Assay type: biochemical
Reported Property: Ki

>>> value_reported("Nc1ncnc2c1ncn2[C@@H]1O[C@H](COP(=O)(O)OP(=O)(O)O)[C@@H](OP(=O)(O)O)[C@H]1O [ppAp, 5'-diphosphoadenosine-3'-phosphate]")
"250 nM"
>>> value_reported("Nc1ncnc2c1ncn2[C@@H]1O[C@H](COP(=O)(O)OP(=O)(O)O[C@H]2C[C@H](n3ccc(=O)[nH]c3=O)O[C@@H]2COP(=O)(O)O)[C@@H](OP(=O)(O)O)[C@H]1O")
"220 nM"
